Test: Pharmacokinetic profile in rats
Format: in vivo
Settings: rat, plasma, po
TEST_READOUT: half-life

[
  {
    "MOLECULE": "COc1ccc2c(Cc3ccccc3F)c3n(c(=O)c2c1OC)CCc1cc2c(cc1-3)OCO2 [KRN5]",
    "TEST_READOUT": "half-life",
    "VALUE_MEASURED": "> 8 h"
  }
]
